system: MV4-11; experiment: Secondary dose-response HTS, Cell Titer Glo; assay type: cell-based, human; settings: secondary high-throughput screen; MV4-11
measure: average effective concentration, MV4-11

Examples from the recorded data:
compound | average effective concentration, MV4-11
COCCCn1c(N)c(C(=O)NC2CCCC2)c2nc3ccccc3nc21 | Inactive
CN1CCc2c(c3ccccc3n2Cc2ccc(C(=O)NO)cc2)C1 [[…]] | Inactive
N#Cc1ccc(COC[C@H]2O[C@@H](n3c(NCc4ccc(Cl)c(Cl)c4)nc4c(N)ncnc43)[C@H](O)[C@@H]2O)cc1 | Inactive
Cc1ccc(S(=O)(=O)n2c(N)nc3ccccc32)cc1 | Inactive

For each of the items listed, what is its average effective concentration, MV4-11?
1. Cn1cc(C(=O)Cc2ccccc2)cc1/C=C/C(=O)NO
2. O=C1NCCc2c(OCCCCN3CCCCC3)cccc21
3. CSCC[C@H](NC(=O)[C@H](Cc1ccccc1)NC[C@@H](NC[C@@H](N)CS)C(C)C)C(=O)O
4. O=C(O)c1ccnc(C(=O)O)c1

1: Inactive; 2: Inactive; 3: Inactive; 4: Inactive

For each of the items listed, what is its average effective concentration, MV4-11?
1. O=C1c2ccccc2-c2nc3nnnn3nc21.O=C1c2ccccc2-c2nn3nnnc3nc21
2. N#C/C(=C\c1ccc(-c2cc(Cl)ccc2Cl)o1)C(=O)Nc1cccc2ncccc12
3. O=C1NC(=O)/C(=C/c2cccc(C(F)(F)F)c2)S1
4. Cc1noc(-c2ccc(-c3ccc(CC(=O)O)cc3)cc2)c1NC(=O)O[C@H](C)c1ccccc1
5. O=c1cc(N2CCOCC2)oc2c(-c3cccc4c3sc3ccccc34)cccc12
6. O=C([O-])Cc1ccccc1.[Na+] [SODIUM PHENYLACETATE]

1. Inactive
2. Inactive
3. Inactive
4. Inactive
5. Inactive
6. Inactive

###

test system: CMK; experiment: Secondary dose-response HTS, Cell Titer Glo; format: cell-based, human; details: Homo sapiens, CMK, read-out: average effective concentration, CMK
Binarize EC50 at 70 nM; below is Criterion met, at or above is Criterion not met.

compound | assigned-label
C=C1C(=O)O[C@H]2[C@H]1CC/C(C)=C/CC[C@@]1(C)O[C@@H]21 [PARTHENOLIDE] | Criterion not met
Cc1ccc(C(=O)Nc2ccc(CN3CCN(C)CC3)c(C(F)(F)F)c2)cc1C#Cc1cnc2cccnn12 | Criterion not met
O=C(/C=C/c1cccc(S(=O)(=O)Nc2ccccc2)c1)NO | Criterion met
CNC(=O)c1nn(C)c2c1C(C)(C)Cc1cnc(Nc3ccc(N4CCN(C)CC4)cc3)nc1-2 | Criterion met

Please let me know if `NS(=O)(=O)OC[C@@H]1C[C@@H](n2ccc3c(N[C@H]4CCc5ccccc54)ncnc32)C[C@@H]1O` shows EC50 below 70 nM.
Criterion met

Please let me know if Nc1cc(F)ccc1NC(=O)c1ccc(CNC(=O)/C=C/c2cccnc2)cc1 [CHIDAMIDE] shows EC50 below 70 nM.
Criterion not met

Please let me know if `Cc1ccc(F)c(NC(=O)Nc2ccc(-c3cccc4[nH]nc(N)c34)cc2)c1` shows EC50 below 70 nM.
Criterion not met

Please let me know if `CC(C)c1cc(-c2n[nH]c(=O)n2-c2ccc3c(ccn3C)c2)c(O)cc1O` shows EC50 below 70 nM.
Criterion met

Please let me know if `Cn1cc(-c2cnn3c(N)c(Br)c([C@@H]4CCCNC4)nc23)cn1` shows EC50 below 70 nM.
Criterion not met

Please let me know if `C#Cc1cccc(Nc2ncnc3cc(OC)c(OCCCCCCC(=O)NO)cc23)c1` shows EC50 below 70 nM.
Criterion not met

Please let me know if `COc1cc2c(Nc3ccc(Br)cc3F)ncnc2cc1OCC1CCN(C)CC1` shows EC50 below 70 nM.
Criterion not met
